experimental-system: MMP-13 (Homo sapiens, UniProt P45452)
Construct: made in house; host or cells: baculovirus / insect cells
procedure-summary: In vitro metalloprotease inhibition, fluorogenic MCA peptide substrate
Format: biochemical
test-context: recombinant human enzyme, APMA-activated, room temperature, pH 7.5; read-out: MMP-13 IC50
readout-label: pIC50
To interpret pIC50, take it as minus log10 of a concentration measured in moles per litre.

[
  {
    "compound": "NC(CS(=O)(=O)c1ccc(Oc2ccccc2)cc1)(C(=O)NO)c1ccccc1 (centres unmarked) [Example 70]",
    "readout-label": "pIC50",
    "experimental-result": 9.40
  },
  {
    "compound": "NC(CS(=O)(=O)c1ccc(Sc2ccccc2)cc1)C(=O)NO (centres unmarked) [Example 18a]",
    "readout-label": "pIC50",
    "experimental-result": 7.62
  },
  {
    "compound": "O=C(N[C@@H](CS(=O)(=O)c1ccc(Oc2ccccc2)cc1)C(=O)NO)c1ccncc1 [Example 44]",
    "readout-label": "pIC50",
    "experimental-result": 9.10
  }
]

Exercise: So what pIC50 did CC(CS(=O)(=O)c1ccc(Oc2ccccc2)cc1)(NCCc1ccccc1)C(=O)NO (centres unmarked) [Example 67] get with MMP-13 (Homo sapiens, UniProt P45452)?
Key: 8.62

Exercise: Quick one: CCCCC(=O)NC(CS(=O)(=O)c1ccc(Sc2ccccc2)cc1)C(=O)NO (centres unmarked) [Example 11g]
Key: 8.22

Exercise: Quick one: COc1ccc(S(=O)(=O)CC(NC(=O)CCC(=O)OCc2ccccc2)C(=O)NO)cc1 (centres unmarked) [Example 7]
Key: 8.60

Exercise: Quick one: O=C(NC(CS(=O)(=O)c1ccc(Oc2ccccc2)cc1)(C(=O)NO)c1ccccc1)c1ccccc1 (centres unmarked) [Example 65]
Key: 6.79

Exercise: Quick one: C[C@H](NC(=O)OCc1ccccc1)C(=O)NC(CS(=O)(=O)c1ccc(Sc2ccccc2)cc1)C(=O)NO (some centres unmarked) [Example 19a]
Key: 9.10

* * *

experimental-system: MMP-1 (Homo sapiens)
procedure-summary: In vitro metalloprotease inhibition, fluorogenic MCA peptide substrate
test-context: recombinant human enzyme, APMA-activated, room temperature, pH 7.5
Each record here notes measured pIC50.
To interpret pIC50, take it as minus log10 of a concentration measured in moles per litre.

Below are worked cases with known answers.
[
  {
    "molecule": "COc1ccc(S(=O)(=O)CC(NC(=O)CCC(=O)OCc2ccccc2)C(=O)NO)cc1 (stereo not shown)",
    "pIC50": 6.70
  },
  {
    "molecule": "CN(Cc1ccccc1)[C@H](CS(=O)(=O)c1ccc(Oc2ccccc2)cc1)C(=O)NO",
    "pIC50": 6.32
  },
  {
    "molecule": "COc1ccc(S(=O)(=O)CC(NC(=O)NC(C)(C)C)C(=O)NO)cc1 (stereo not shown)",
    "pIC50": 5.82
  }
]

Now consider the entry below.
Exercise: So what pIC50 did CCNC(C)(CS(=O)(=O)c1ccc(Oc2ccccc2)cc1)C(=O)NO (stereo not shown) get with MMP-1 (Homo sapiens)?
Key: 5.80

* * *

experimental-system: MMP-13 (Homo sapiens, UniProt P45452)
Construct: made in house; host or cells: baculovirus / insect cells
procedure-summary: In vitro metalloprotease inhibition, fluorogenic MCA peptide substrate
Type: biochemical
test-context: MMP-13 IC50, recombinant human enzyme, APMA-activated, room temperature, pH 7.5
readout-label: IC50 (nM)
Numbers only; they are read as nM.

Exercise: Report IC50 for CC(N)(CS(=O)(=O)c1ccc(Oc2ccccc2)cc1)C(=O)NO (stereo not shown) please.
Key: 0.5

* * *

experimental-system: MMP-1 (Homo sapiens, UniProt P03956)
Sequence (P03956 100-469): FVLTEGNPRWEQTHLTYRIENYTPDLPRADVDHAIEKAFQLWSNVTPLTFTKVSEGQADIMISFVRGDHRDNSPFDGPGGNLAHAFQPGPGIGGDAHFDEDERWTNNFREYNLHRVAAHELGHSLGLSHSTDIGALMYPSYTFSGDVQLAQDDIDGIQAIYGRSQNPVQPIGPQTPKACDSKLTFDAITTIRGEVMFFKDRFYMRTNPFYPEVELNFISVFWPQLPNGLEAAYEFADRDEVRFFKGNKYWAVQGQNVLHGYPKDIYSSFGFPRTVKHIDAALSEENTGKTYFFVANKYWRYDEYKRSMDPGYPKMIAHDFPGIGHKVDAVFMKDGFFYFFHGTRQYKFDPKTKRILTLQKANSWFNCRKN
procedure-summary: In vitro metalloprotease inhibition, fluorogenic MCA peptide substrate
test-context: recombinant human enzyme, APMA-activated, room temperature, pH 7.5
Threshold 400 nM. IC50 below it: label 1. IC50 at it or above: label 0.

Examples from the recorded data:
[
  {
    "molecule": "COc1ccc(S(=O)(=O)CC(NS(C)(=O)=O)C(=O)NO)cc1 (stereo not shown) [Example 21]",
    "experimental-system": "MMP-1 (Homo sapiens, UniProt P03956)",
    "label-value": "label 1"
  },
  {
    "molecule": "O=C(N[C@@H](CS(=O)(=O)c1ccc(Sc2ccccc2)cc1)C(=O)NO)OCc1ccccc1 [Example 32]",
    "experimental-system": "MMP-1 (Homo sapiens, UniProt P03956)",
    "label-value": "label 0"
  }
]

Exercise: Consider the molecule O=C(NC(CS(=O)(=O)c1ccc(Sc2ccccc2)cc1)C(=O)NO)c1ccncc1 (stereo not shown) [Example 28] . Is its IC50 strictly less than 400 nM?
Key: label 0

Exercise: Quick one: CC(N)(CS(=O)(=O)c1ccc(NC(=O)c2ccccc2)cc1)C(=O)NO (stereo not shown) [Example 61]
Key: label 0

* * *

Test system: human moncytic line U-937
procedure-summary: Tumor necrosis factor assay: PMA-stimulated TNF release, TNFα ELISA
Format: cell-based
test-context: U-937 cells
Each record here notes measured IC50.

[
  {
    "compound": "COc1ccc(S(=O)(=O)CC(NC(=O)CCC(=O)O)C(=O)NO)cc1 (centres unmarked)",
    "experimental-result": "> 50 µM"
  },
  {
    "compound": "COc1ccc(S(=O)(=O)CC(NC(=O)[C@@H](C)NC(=O)OCc2ccccc2)C(=O)NO)cc1 (some centres unmarked)",
    "experimental-result": "14 µM"
  },
  {
    "compound": "COc1ccc(S(=O)(=O)CC(NC(C)=O)C(=O)NO)cc1 (centres unmarked)",
    "experimental-result": "> 50 µM"
  }
]

Exercise: So what IC50 did COc1ccc(S(=O)(=O)CC(NC(C)=O)C(=O)NO)cc1OC (centres unmarked) get with human moncytic line U-937?
Key: > 50 µM

Exercise: Quick one: COc1ccc(S(=O)(=O)CC(NC(=O)CCC(=O)OCc2ccccc2)C(=O)NO)cc1 (centres unmarked)
Key: > 50 µM

Exercise: Quick one: COc1ccc(S(=O)(=O)CC(N)C(=O)NO)cc1 (centres unmarked)
Key: > 29 µM

Exercise: Quick one: CCCCC(=O)NC(CS(=O)(=O)c1ccc(OC)cc1)C(=O)NO (centres unmarked)
Key: > 50 µM

Exercise: Quick one: CC(=O)NC(CS(=O)(=O)c1ccc(Br)cc1)C(=O)NO (centres unmarked)
Key: > 50 µM

* * *

experimental-system: MMP-13 (Homo sapiens, UniProt P45452)
Construct: made in house; host or cells: baculovirus / insect cells
procedure-summary: In vitro metalloprotease inhibition, fluorogenic MCA peptide substrate
Type: biochemical
test-context: recombinant human enzyme, APMA-activated, room temperature, pH 7.5; read-out: MMP-13 IC50
pIC50: −log10 of the molar value.
Please note: YES applies when pIC50 is 8 or greater, and NO applies otherwise.

Examples from the recorded data:
[
  {
    "molecule": "CC(CS(=O)(=O)c1ccc(Oc2ccccc2)cc1)(NCc1ccc2c(c1)OCO2)C(=O)NO (centres unmarked)",
    "experimental-system": "MMP-13 (Homo sapiens, UniProt P45452)",
    "label-value": "YES"
  },
  {
    "molecule": "CC(=O)N[C@@H](CS(=O)(=O)c1ccc(Oc2ccccc2)cc1)C(=O)NO",
    "experimental-system": "MMP-13 (Homo sapiens, UniProt P45452)",
    "label-value": "YES"
  }
]

Exercise: Check this molecule for pIC50 at or above 8: CC(=O)NC(CS(=O)(=O)c1ccc(Br)cc1)C(=O)NO (centres unmarked)
Key: NO

Exercise: Quick one: COc1ccc(S(=O)(=O)CC(NC(=O)[C@@H](C)NC(=O)OCc2ccccc2)C(=O)NO)cc1 (some centres unmarked)
Key: YES

Exercise: Quick one: CC(=O)N1CCC(C(=O)NC(CS(=O)(=O)c2ccc(Oc3ccccc3)cc2)C(=O)NO)CC1 (centres unmarked)
Key: YES

* * *

experimental-system: MMP-1 (Homo sapiens)
procedure-summary: In vitro metalloprotease inhibition, fluorogenic MCA peptide substrate
test-context: recombinant human enzyme, APMA-activated, room temperature, pH 7.5
readout-label: pIC50
To interpret pIC50, take it as minus log10 of a concentration measured in moles per litre.

Exercise: So what pIC50 did CN(C(=O)Cc1ccncc1)[C@H](CS(=O)(=O)c1ccc(Oc2ccccc2)cc1)C(=O)NO [Example 47] get with MMP-1 (Homo sapiens)?
Key: 6.59

Exercise: Quick one: O=C(NO)[C@H](CS(=O)(=O)c1ccc(Oc2ccccc2)cc1)N1CCCCC1 [Example 54]
Key: 6.46

Exercise: Quick one: CC(C)(C)C(=O)NC(CS(=O)(=O)c1ccc(Oc2ccccc2)cc1)C(=O)NO (centres unmarked) [Example 10d]
Key: 5.80

Exercise: Quick one: COc1ccc(S(=O)(=O)CC(NC(C)=O)C(=O)NO)cc1 (centres unmarked) [Example 1]
Key: 6.52

Exercise: Quick one: NC(CS(=O)(=O)c1ccc(Oc2ccccc2)cc1)(C(=O)NO)c1ccccc1 (centres unmarked) [Example 70]
Key: 6.89

Exercise: Quick one: N[C@H](CNO)CS(=O)(=O)c1ccc(Oc2ccccc2)cc1 [Example 60]
Key: 6.36

Exercise: Quick one: COc1ccc(CC(=O)NC(CS(=O)(=O)c2ccc(Sc3ccccc3)cc2)C(=O)NO)c(OC)c1 (centres unmarked) [Example 31]
Key: 5.52

Exercise: Quick one: CC(C)(C)OC(=O)N[C@@H](CS(=O)(=O)c1ccc(Oc2ccccc2)cc1)C(=O)NO [Example 33]
Key: 6.30

Exercise: Quick one: COc1ccc(S(=O)(=O)CC(NC(=O)CNC(=O)OCc2ccccc2)C(=O)NO)cc1 (centres unmarked) [Example 6]
Key: 7.40

Exercise: Quick one: O=C(N[C@@H](CS(=O)(=O)c1ccc(Oc2ccccc2)cc1)C(=O)NO)c1ccncc1 [Example 44]
Key: 6.05

Exercise: Quick one: COc1cccc(OC)c1C(=O)N[C@@H](CS(=O)(=O)c1ccc(Oc2ccccc2)cc1)C(=O)NO [Example 37]
Key: 6.46

Exercise: Quick one: COc1ccc(S(=O)(=O)CC(N)C(=O)NO)cc1 (centres unmarked) [Example 22]
Key: 6.60

Exercise: Quick one: O=C(NC(CS(=O)(=O)c1ccc(Sc2ccccc2)cc1)C(=O)NO)c1ccccc1-c1ccccc1 (centres unmarked) [Example 35]
Key: 5.52

Exercise: Quick one: CCN(CC)c1ccc(C(=O)N[C@@H](CS(=O)(=O)c2ccc(Oc3ccccc3)cc2)C(=O)NO)cc1 [Example 53]
Key: 5.09

Values were extracted from patent US6583299B1.
